aptazyme ON/OFF ratio reference
B1: Pistol ribozyme (parent)
chain: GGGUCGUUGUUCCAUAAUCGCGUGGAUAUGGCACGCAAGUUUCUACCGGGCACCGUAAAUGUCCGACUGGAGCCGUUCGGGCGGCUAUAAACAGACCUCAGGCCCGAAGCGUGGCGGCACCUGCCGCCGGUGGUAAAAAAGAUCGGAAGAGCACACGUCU

# Variants of: B1
# experiment notes: aptazyme ON/OFF ratio, guanine; higher = stronger switching; co-transcriptional cleavage with and without guanine

INSERT INTO measurements (mutation_string, experimental_readout, measured_result) VALUES
  ('U7A U8A G9U U10G U11G C12U C13U', 'aptazyme ON/OFF ratio', 1.22);

Any idea what aptazyme ON/OFF ratio was measured for U7A U8A G9A U10C U11C C12U C13A ?
1.06

Any idea what aptazyme ON/OFF ratio was measured for U7G U8G G9A U10G U11A C12U C13U ?
1.07

Any idea what aptazyme ON/OFF ratio was measured for U7G U8A C12G C13A ?
1.51

Any idea what aptazyme ON/OFF ratio was measured for U7C U8C G9A U11C C13G ?
1.05

Any idea what aptazyme ON/OFF ratio was measured for U7A U8A U10A U11C C12A C13G ?
1.12

Any idea what aptazyme ON/OFF ratio was measured for U7A G9U U10C U11C C12U C13U ?
1.07
